System: L1210 leukemia ip in BDF1 mice, survival T/C
assay name: NCI In Vivo Anticancer Drug Screen. Data for tumor model L1210 Leukemia (intraperitoneal) in B6D2F1 (BDF1) mice
experimental parameters: endpoint: mean survival time; dose: 400.0 mg/kg/injection; schedule: Q04DX002 (ip); vehicle: Klucel (hydroxypropylcellulose) (HPC); higher = longer survival
Inconclusive results and toxic doses are left out.
quantity measured: T/C

CCCS(=O)(=O)N1CCCCC1: 102 % of control

What value of T/C has been recorded for this entry: `O=C(Nc1cc([N+](=O)[O-])ccc1Cl)c1ccc(F)cc1`
102 % of control

Request the reported T/C associated with `CCN(CC)CC`
103 % of control

I am curious: what T/C value has been reported for O=C(c1ccccc1)C(Nc1nc2nc(-c3ccccc3)c(-c3ccccc3)n2[nH]1)c1ccccc1 (configuration not stated) ?
96 % of control

# T/C lookup, item `CSc1nc(C(Cl)Cl)cnc1Cl`
105 % of control

* * *

Each entry below lists one item and its recorded T/C value.
Test system: L1210 leukemia ip in BDF1 mice, survival T/C
assay name: NCI In Vivo Anticancer Drug Screen. Data for tumor model L1210 Leukemia (intraperitoneal) in B6D2F1 (BDF1) mice
experimental parameters: endpoint: mean survival time; dose: 25.0 mg/kg/injection; schedule: Q01DX009 (ip); vehicle: saline with Tween-80; higher = longer survival
Inconclusive results and toxic doses are left out.

CNC(=O)NNC(=O)CNC(=O)Nc1cccc([N+](=O)[O-])c1: 91 % of control

What value of T/C has been recorded for this entry: `N#CC(C#N)C1c2ccccc2Nc2ccccc21`
89 % of control

Would you kindly share the measured T/C for `CSC(=N)c1cccc(OCCCOc2ccccc2)c1` ?
94 % of control

Fill blank: measured T/C of the compound NCC(OCCCc1ccccc1)C(Cl)(Cl)Cl (configuration not stated) is ____.
105 % of control

What does the record list as T/C for `CCCCOP(=O)(CCCC)OCCCC` ?
92 % of control

State the recorded T/C for this entry: `CCCCCCCCCCCCCCCc1ccc(C(=O)C[n+]2ccccc2)cc1`
120 % of control

Sample `CC(=O)N1c2ccccc2Sc2cc(C(O)(C(F)(F)F)C(F)(F)F)ccc21` — what was its T/C?
95 % of control

// query T/C value for entry `Cc1ccc(NC(=O)COc2cc(Cl)c(Cl)cc2Cl)cc1C`
89 % of control

Which T/C reading was recorded for the compound `CC(=O)Nc1ccc(/C=N/NC(=O)CNC(=O)Nc2cccc(Cl)c2)cc1` ?
95 % of control

Tell me the measured T/C of `O=C(C[n+]1ccccc1/C=N/O)c1ccccc1` , please.
99 % of control

Bench note: what T/C did `CCN(CCS)Cc1ccccc1` show?
95 % of control

Dear colleague, I am looking for the recorded T/C of the following compound: `COc1cc(/C=N/[N+](C)(C)C)ccc1O`
96 % of control

* * *

System: L1210 leukemia ip in BDF1 mice, survival T/C
assay name: NCI In Vivo Anticancer Drug Screen. Data for tumor model L1210 Leukemia (intraperitoneal) in B6D2F1 (BDF1) mice
experimental parameters: endpoint: mean survival time; dose: 200.0 mg/kg/injection; schedule: Q04DX003 (ip); vehicle: Klucel (hydroxypropylcellulose) (HPC); higher = longer survival
Inconclusive results and toxic doses are left out.
Measured T/C of individual entries

# count of solved cases: 5
O=C(O)CSCCc1ccccc1: 105 % of control
Cc1cc(Cl)ccc1NC(=O)c1ccccc1: 92 % of control
CCC(/C=N/NC(N)=O)CC: 93 % of control
CCOC(=O)C(CCN1CCCCC1)c1cccc2ccccc12 (configuration not stated): 88 % of control
CC(CC#N)OC(=O)c1cccc([N+](=O)[O-])c1 (configuration not stated): 93 % of control

So what T/C did `O=C1OC(=O)c2c1ccc(Br)c2Br` get with L1210 leukemia ip in BDF1 mice, survival T/C?
98 % of control

Lab note: need T/C with L1210 leukemia ip in BDF1 mice, survival T/C for entry `CNC(=O)Nc1ccc(Cl)cc1C` , please look it up.
96 % of control

* * *

System: L1210 leukemia ip in BDF1 mice, survival T/C
assay name: NCI In Vivo Anticancer Drug Screen. Data for tumor model L1210 Leukemia (intraperitoneal) in B6D2F1 (BDF1) mice
experimental parameters: endpoint: mean survival time; dose: 400.0 mg/kg/injection; schedule: Q04DX003 (ip); vehicle: saline; higher = longer survival
Inconclusive results and toxic doses are left out.
quantity measured: T/C

C=CCOCCO: 100 % of control
CCOC(=O)Oc1ccc(Br)cc1Br: 102 % of control
BrC1C2C=CCC1CC2 (configuration not stated): 94 % of control

Endpoint output: T/C of `O=[N+]([O-])c1cc(Br)cc(Br)c1S(=O)(=O)O` . Value?
108 % of control

Consider the compound `CCOC(=O)C(C)(OCC)OCC` and give its measured T/C.
102 % of control

What measured T/C goes with CCC(NC(=O)c1cnc2ccccc2n1)C(=O)O (configuration not stated) ?
90 % of control

Item `CN1C(=O)CCC1=O` has what recorded T/C?
98 % of control

Fill in the blank: the reported T/C of `CC(=O)NC1(CO)CCCCC1` is ____.
94 % of control

Can you look up the measured T/C of O=C(c1ccccc1)C1(c2ccccc2)SSC1(C(=O)c1ccccc1)c1ccccc1 (configuration not stated) for me?
97 % of control

Requested field: T/C. Item: `[N-]=[N+]=NCC(=O)NCc1cnccn1`
96 % of control

So what's the measured T/C for this one? N#CC1(OC2OC(CO)C(O)C(O)C2O)C=CC(O)C1O (configuration not stated)
96 % of control

I have this compound here, CC1(C)SC2C(NC(=O)Cc3ccccc3)C(=O)N2C1C(=O)O (configuration not stated) , and I need its recorded T/C.
104 % of control

* * *

Test system: L1210 leukemia ip in BDF1 mice, survival T/C
assay name: NCI In Vivo Anticancer Drug Screen. Data for tumor model L1210 Leukemia (intraperitoneal) in B6D2F1 (BDF1) mice
experimental parameters: endpoint: mean survival time; dose: 400.0 mg/kg/injection; schedule: Q01DX001 (ip); vehicle: saline; higher = longer survival
Inconclusive results and toxic doses are left out.
quantity measured: T/C

Nc1ncnc2c1ncn2C1OC(CO)CC1O (stereo not drawn): 123 % of control
CN(C)c1ccc(C=Nc2ccccc2O)cc1: 97 % of control
CN=C(NC)SC: 96 % of control

// query T/C value for entry `O=[N+]([O-])c1ccc(-c2cc3ccccc3nc2Cl)cc1`
101 % of control

What does the record list as T/C for `CC(C)(CO)N=Cc1ccccc1Cl` ?
100 % of control

Please report the recorded T/C for `Cl[Si](Cc1ccccc1)(Cc1ccccc1)Cc1ccccc1` .
95 % of control

For the compound O=C1CCC(N2C(=O)c3ccccc3C2=O)C(=O)N1 (stereo not drawn) , what T/C is on record?
109 % of control

What does the data say about its T/C? Entry: `COc1ccc(C(=O)C2=CC(=O)C(=O)C2)cc1OC`
94 % of control

Which measured T/C value corresponds to `COC(=O)CSC/C(=N\Nc1ccccc1)c1ccccc1` ?
93 % of control

Name the recorded T/C for CC(NCl)c1ccccc1 (stereo not drawn) .
100 % of control

What value of T/C has been reported for the following compound? `O=C(Oc1cccc([N+](=O)[O-])c1)c1ccc([N+](=O)[O-])cc1O`
97 % of control

Request the reported T/C associated with `CCOC(=O)C(CCCOC(=O)c1cc([N+](=O)[O-])cc([N+](=O)[O-])c1)C(=O)OCC`
91 % of control

// query T/C value for entry `O=S(=O)(O)NC1CCCCC1`
95 % of control

Data request, read-out T/C, for `CCOC(=O)c1cnc(SC)[nH]c1=O`
98 % of control

* * *

Test system: L1210 leukemia ip in BDF1 mice, survival T/C
assay name: NCI In Vivo Anticancer Drug Screen. Data for tumor model L1210 Leukemia (intraperitoneal) in B6D2F1 (BDF1) mice
experimental parameters: endpoint: mean survival time; dose: 25.0 mg/kg/injection; schedule: Q01DX009 (ip); vehicle: saline
Inconclusive results and toxic doses are left out. Rule as the data show it: active = T/C of 150% or more; inactive = T/C below 125%.
Lab note: assign the record to one of 1.0 = active, 0.0 = inactive

CC(=O)OCC1OC(n2cc(F)c(=O)[nH]c2=O)CC1OC(C)=O (configuration not stated): 0.0

Which outcome did this test record for the compound `c1ccc2c(c1)CNCc1ccccc1-2` ?
0.0

Would you mind telling me which call this test gave `ClC1=C(Cl)C(Cl)(Cl)C(Cl)(Cl)C1(Cl)Cl` ?
0.0

What is the recorded call for this compound in the test? `Fc1cccc(CSc2ncnc3nc[nH]c23)c1`
0.0

Entry NC(CSC(c1ccccc1)(c1ccccc1)c1ccc2ccccc2c1)C(=O)O (configuration not stated) : call = ?
1.0

What call does the record list for `ICc1ccc(CI)cc1` ?
0.0

Outcome logged for `Oc1ccc(CNCCNCCNCc2ccc(O)cc2)cc1` in this assay:
0.0

Data provenance is PubChem BioAssay AID248.
